Catalogue of compounds with associated pEC50, in vitro inhibition of cAMP
Molecular target: GPR6 receptor expressed in CHO-K1 cells (Homo sapiens, UniProt P46095)
Construct: expressed in transfected cells
Sequence (P46095 whole entry): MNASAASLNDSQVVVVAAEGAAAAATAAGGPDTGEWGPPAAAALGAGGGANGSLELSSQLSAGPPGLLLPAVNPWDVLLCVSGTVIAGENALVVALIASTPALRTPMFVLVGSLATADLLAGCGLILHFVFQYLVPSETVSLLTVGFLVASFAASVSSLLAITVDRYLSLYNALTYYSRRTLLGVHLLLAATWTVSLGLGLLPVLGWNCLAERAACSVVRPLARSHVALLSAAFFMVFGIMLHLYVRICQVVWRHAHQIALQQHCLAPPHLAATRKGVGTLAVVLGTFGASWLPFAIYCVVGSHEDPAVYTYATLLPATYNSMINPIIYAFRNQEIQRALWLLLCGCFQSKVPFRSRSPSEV
Experiment: In vitro inhibition of cAMP (EC50), cell-based HTRF cAMP assay
Conditions: inhibition of constitutive cAMP activity of GPR6 in CHO-K1 cells
Protocol: I. In Vitro Inhibition of cAMP (EC50) This cell based assay measures the ability of test compounds to inhibit the constitutive cAMP activity of GPR6 receptor expressed in CHO-K1 cells. CHO cells are stably expressed with GPR6 receptor, whose expression is controlled by a tetracycline inducible element. The cells were cultured in medium containing F12K, 10% FBS, 1% Penn/Strep, 200 μg/mL Hygromycin. […]

compound | target_of_assay | pEC50, in vitro inhibition of cAMP
Cn1cccc(C(=O)Nc2ccccc2N2CCC(Oc3ccc(F)cc3F)CC2)c1=O [Example 257] | GPR6 receptor expressed in CHO-K1 cells (Homo sapiens, UniProt P46095) | 7.0
COc1ccc(C(=O)Nc2cc(C#N)ccc2N2CCC(Oc3ccc(F)cc3F)CC2)c(OC)c1 [Example 235] | GPR6 receptor expressed in CHO-K1 cells (Homo sapiens, UniProt P46095) | 7.1
COc1nn(C)cc1C(=O)Nc1cnc(C)cc1N1CCC(S(=O)(=O)c2ccc(F)cc2F)CC1 [Example 99] | GPR6 receptor expressed in CHO-K1 cells (Homo sapiens, UniProt P46095) | 6.1
Cc1ccc(SC2CCN(c3ncc(C#N)cc3NC(=O)c3ccccn3)CC2)cc1 [Example 69] | GPR6 receptor expressed in CHO-K1 cells (Homo sapiens, UniProt P46095) | 6.7
COc1ccsc1C(=O)Nc1cc(C#N)ccc1N1CCC(Oc2ccc(F)cc2F)CC1 [Example 46] | GPR6 receptor expressed in CHO-K1 cells (Homo sapiens, UniProt P46095) | 7.2
COc1ncccc1C(=O)Nc1cc(C#N)ccc1N1CCN(Cc2ccccc2C#N)CC1 [Example 245] | GPR6 receptor expressed in CHO-K1 cells (Homo sapiens, UniProt P46095) | 7.0
N#Cc1ccc(N2CCC(Oc3ccc(F)cc3F)CC2)c(NC(=O)c2cnsn2)c1 [Example 134] | GPR6 receptor expressed in CHO-K1 cells (Homo sapiens, UniProt P46095) | 5.8
COc1cc(C(C)(C)C)ccc1C(=O)Nc1cc(C#N)ccc1N1CCC(Oc2ccc(F)cc2F)CC1 [Example 216] | GPR6 receptor expressed in CHO-K1 cells (Homo sapiens, UniProt P46095) | 6.4
COc1cscc1C(=O)Nc1cc(C#N)ccc1N1CCC(Oc2ccc(F)cc2F)CC1 [Example 47] | GPR6 receptor expressed in CHO-K1 cells (Homo sapiens, UniProt P46095) | 7.2
COc1ccc(C(=O)C2CCN(c3ccc(C#N)cc3NC(=O)c3cccn(C)c3=O)CC2)c(F)c1 [Example 81] | GPR6 receptor expressed in CHO-K1 cells (Homo sapiens, UniProt P46095) | 6.9
COc1c(Cl)cccc1C(=O)Nc1cc(C#N)ccc1N1CCC(Oc2ccc(F)cc2F)CC1 [Example 222] | GPR6 receptor expressed in CHO-K1 cells (Homo sapiens, UniProt P46095) | 6.7

====

Biological target: GPR6 receptor expressed in CHO-K1 cells (Homo sapiens, UniProt P46095)
Construct: expressed in transfected cells
Assay: In vitro inhibition of cAMP (EC50), cell-based HTRF cAMP assay
Details: inhibition of constitutive cAMP activity of GPR6 in CHO-K1 cells
property: pEC50, in vitro inhibition of cAMP

compound | relational_operator | value_measured
COc1ccc(C)cc1C(=O)Nc1cc(C#N)ccc1N1CCC(Oc2ccc(F)cc2F)CC1 [Example 237] | = | 6.7
COc1ccc(OC(F)(F)F)cc1C(=O)Nc1cc(C#N)ccc1N1CCC(Oc2ccc(F)cc2F)CC1 [Example 231] | = | 6.3
COc1cc(CN2CCN(c3ncc(C#N)cc3NC(=O)c3cn(C)nc3OC)CC2)ccc1F [Example 158] | = | 6.3
N#Cc1cnc(N2CCC(Oc3ccc(F)cc3F)CC2)c(NC(=O)c2cnccc2O)c1 [Example 61] | = | 6.4
COc1ccc(F)cc1CN1CCN(c2ncc(C#N)cc2NC(=O)c2cn(C)nc2OC)CC1 [Example 161] | = | 6.5
Cc1cc(=O)c(C(=O)Nc2cc(C#N)ccc2N2CCC(Oc3ccc(F)cc3F)CC2)cn1C [Example 24] | = | 6.2
COc1nccnc1C(=O)Nc1cc(C#N)ccc1N1CCC(Oc2ccc(F)cc2F)CC1 [Example 94] | < | 5.7
Cc1cnc(C(=O)Nc2cc(C#N)ccc2N2CCC(Oc3ccc(F)cc3F)CC2)cn1 [Example 123] | = | 6.5
COc1cc(Cl)ccc1C(=O)Nc1cc(C#N)ccc1N1CCC(Oc2ccc(F)cc2F)CC1 [Example 228] | = | 7.2
COc1cc(F)c(F)cc1CN1CCN(c2ncc(C#N)cc2NC(=O)c2cn(C)nc2OC)CC1 [Example 170] | = | 6.5
COc1c(C(=O)Nc2cc(C#N)ccc2N2CCC(Oc3ccc(F)cc3F)CC2)ccc(F)c1F [Example 233] | = | 6.4
N#Cc1ccc(N2CCC(Oc3ccc(F)cc3F)CC2)c(NC(=O)c2cnccn2)c1 [Example 44] | = | 6.2
N#Cc1ccc(N2CCC(Oc3ccc(F)cc3F)CC2)c(NC(=O)c2ccccc2O)c1 [Example 275] | = | 6.5
COc1ncc(NC(=O)c2ccc(C)nc2OC)c(N2CCC(Oc3ccc(F)cc3F)CC2)n1 [Example 23] | = | 6.3
O=C(Nc1ccccc1N1CCN(C(=O)c2ccc(Cl)cc2)CC1)c1ncccn1 [Example 258] | = | 4.9
COc1c(C(=O)Nc2cc(C#N)ccc2N2CCC(Oc3ccc(F)cc3F)CC2)nnn1Cc1ccccc1Cl [Example 221] | < | 4.5

Measured values drawn from patent US11426397B2 for this set.
